These entries and their values trace back to patent US20150004189A1.

Each item that follows carries a reported IC50.
Target: HLA-DQ molecule DQB1*0503 (human)
Assay: inhibition of radiolabeled peptide binding to purified HLA-DQ
reported metric: IC50 (µM)

1) KALWIIFSQNMNIKL [Cup a 1 (66-80) peptide KALWIIFSQNMNIKL] | 29
2) NLNIKLNMPLYIAGN [Cha o 1 (96-110) peptide NLNIKLNMPLYIAGN] | 10.7
3) IIFSQNMNIKLKMPL [Cup s 1 (91-105) peptide IIFSQNMNIKLKMPL] | 36
